Please respond with reported viability, T/C for every item in the list.
Test system: 898857-211-R-J1-PDC complex spheroids, growth % test/control
EXPERIMENT: Anticancer human tumor 898857-211-R-J1-PDC patient-derived melanoma cell line growth inhibition [RAS]
RECORDED CONDITIONS: second compound 0.003 µM; first compound 0.316 µM; stronger effect = lower value
A number alone suffices; assume %.

Return reported viability, T/C. Input compound: C[C@@H](NC(=O)c1ncnc(N)c1Cl)c1ncc(C(=O)Nc2cc(C(F)(F)F)c(Cl)cn2)s1 + CCn1c(-c2cc(N3CCN(C)CC3)cnc2C(C)OC)c2c3cc(ccc31)-c1csc(n1)CC(NC(=O)C1CC1C)C(=O)N1CCCC(N1)C(=O)OCC(C)(C)C2
71

Find the measured viability, T/C of CCC(CC)c1cc(NC2CCC(N)C2)n2nccc2n1 (centres undefined) + CCn1c(-c2cc(N3CCN(C)CC3)cnc2C(C)OC)c2c3cc(ccc31)-c1csc(n1)CC(NC(=O)C1CC1C)C(=O)N1CCCC(N1)C(=O)OCC(C)(C)C2 and report it.
82

Please look at this compound and report its viability, T/C: Nc1ccn(C2OC(CO)C(O)C2(F)F)c(=O)n1 (centres undefined) + CCn1c(-c2cccnc2C(C)OC)c2c3cc(ccc31)N1CCOC(CC(NC(=O)C(C(C)C)N(C)C(=O)C3(F)CCN(C(=O)C#CC(C)(C)N(C)C)CC3)C(=O)N3CCCC(N3)C(=O)OCC(C)(C)C2)C1
4.28

Please supply the value of reported viability, T/C for the item CC(C)NCC(C(=O)N1CCN(c2ncnc3c2C(C)CC3O)CC1)c1ccc(Cl)cc1 (centres undefined) + CCn1c(-c2cccnc2C(C)OC)c2c3cc(ccc31)N1CCOC(CC(NC(=O)C(C(C)C)N(C)C(=O)C3(F)CCN(C(=O)C#CC(C)(C)N(C)C)CC3)C(=O)N3CCCC(N3)C(=O)OCC(C)(C)C2)C1
103

* * *

System: 898857-211-R-J1-PDC complex spheroids, growth % test/control
EXPERIMENT: Anticancer human tumor 898857-211-R-J1-PDC cell line growth inhibition [RAS]; active means viability on the fitted dose curve at most 10% of control; inactive means the rest;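 note: spheroids exposed to compound for seven days before readout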
RECORDED CONDITIONS: compound 0.1 µM
// allowed return values: active, inactive

Could you kindly confirm the outcome this assay logged for C#Cc1c(F)ccc2cc(O)cc(-c3ncc4c(N5CC6CCC(C5)N6)nc(OCC56CCCN5CC(F)C6)nc4c3F)c12 (stereo not drawn) ?
inactive

Recorded test outcome, item NC1c2ccccc2OC12CCN(c1cnc3c(N4CCCc5ncccc54)n[nH]c3n1)CC2 (stereo not drawn)
inactive

What classification did CC(Nc1ccc2c(c1)OCCn1cc(N3C(=O)OCC3C(F)F)nc1-2)C(N)=O (stereo not drawn) end up with in this test?
inactive

// return assay outcome for CC(C)n1nc(-c2ccc3oc(N)nc3c2)c2c(N)ncnc21
inactive

# outcome recorded in this test, key = CC(=O)OC12COC1CC(O)C1(C)C(=O)C(O)C3=C(C)C(OC(=O)C(O)C(NC(=O)OC(C)(C)C)c4ccccc4)CC(O)(C(OC(=O)c4ccccc4)C21)C3(C)C (stereo not drawn)
inactive

Check the results log: what was the call for O=C(c1ccc(F)c(F)c1Nc1ccc(I)cc1F)N1CC(O)([C@@H]2CCCCN2)C1 ?
inactive

Recorded test call requested for C=CC(=O)Nc1cc(Nc2nccc(-c3cn(C)c4ccccc34)n2)c(OC)cc1N(C)CCN(C)C
inactive

Can you look up the reported call for C=CC(=O)N1CCN(c2nc(OCC3CCCN3C)nc3c(F)c(-c4nc(N)cc(C)c4C(F)(F)F)c(Cl)cc23)C(C)C1 (stereo not drawn) for me?
inactive

Call for entry CC(C)NCC(C(=O)N1CCN(c2ncnc3c2C(C)CC3O)CC1)c1ccc(Cl)cc1 (stereo not drawn) :
inactive

Answer briefly: the call reported for Cc1nc(N2CCC3(CC2)COC(C)C3N)c(CO)nc1Sc1ccnc(N)c1Cl (stereo not drawn) in this assay.
inactive

// outcome(item) with item = C[C@@H](NC(=O)c1ncnc(N)c1Cl)c1ncc(C(=O)Nc2cc(C(F)(F)F)c(Cl)cn2)s1
inactive

Just curious, what result did Nc1ccn(C2OC(CO)C(O)C2(F)F)c(=O)n1 (stereo not drawn) get here?
active

Please let me know the test result on file for CCC(CC)c1cc(NC2CCC(N)C2)n2nccc2n1 (stereo not drawn) .
inactive

* * *

System: 898857-211-R-J1-PDC complex spheroids, growth % test/control
EXPERIMENT: Anticancer human tumor 898857-211-R-J1-PDC cell line growth inhibition [RAS]; active = viability on the fitted dose curve at most 10% of control; inactive = the rest;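 note: spheroids exposed to compound for seven days before readout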
RECORDED CONDITIONS: compound 0.316 µM
// allowed return values: yes (active), no (inactive)

For Nc1ccn(C2OC(CO)C(O)C2(F)F)c(=O)n1 (stereo unspecified) , what call appears in the results of this test?
yes

Write down the call the test reported for this compound. Item: CCC(CC)c1cc(NC2CCC(N)C2)n2nccc2n1 (stereo unspecified)
no

Call for entry C#Cc1c(F)ccc2cc(O)cc(-c3ncc4c(N5CC6CCC(C5)N6)nc(OCC56CCCN5CC(F)C6)nc4c3F)c12 (stereo unspecified) :
no

Please indicate how the test categorized NC1c2ccccc2OC12CCN(c1cnc3c(N4CCCc5ncccc54)n[nH]c3n1)CC2 (stereo unspecified) .
no

// outcome(item) with item = Cc1nc(N2CCC3(CC2)COC(C)C3N)c(CO)nc1Sc1ccnc(N)c1Cl (stereo unspecified)
no

Record lookup: outcome of this test for CC(C)NCC(C(=O)N1CCN(c2ncnc3c2C(C)CC3O)CC1)c1ccc(Cl)cc1 (stereo unspecified) ?
no

Returns: the outcome recorded for O=C(c1ccc(F)c(F)c1Nc1ccc(I)cc1F)N1CC(O)([C@@H]2CCCCN2)C1 in this assay.
no

Test call for this compound, please: C=CC(=O)Nc1cc(Nc2nccc(-c3cn(C)c4ccccc34)n2)c(OC)cc1N(C)CCN(C)C
no

For C=CC(=O)N1CCN(c2nc(OCC3CCCN3C)nc3c(F)c(-c4nc(N)cc(C)c4C(F)(F)F)c(Cl)cc23)C(C)C1 (stereo unspecified) , which call appears in the assay record?
no

Which result was noted for this compound in the test: CC(Nc1ccc2c(c1)OCCn1cc(N3C(=O)OCC3C(F)F)nc1-2)C(N)=O (stereo unspecified)
no

Look up the recorded call for CC(=O)OC12COC1CC(O)C1(C)C(=O)C(O)C3=C(C)C(OC(=O)C(O)C(NC(=O)OC(C)(C)C)c4ccccc4)CC(O)(C(OC(=O)c4ccccc4)C21)C3(C)C (stereo unspecified) in this test.
no

* * *

System: 898857-211-R-J1-PDC complex spheroids, growth % test/control
EXPERIMENT: Anticancer human tumor 898857-211-R-J1-PDC cell line growth inhibition [RAS];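 note: spheroids exposed to compound for seven days before readout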
RECORDED CONDITIONS: curve of first compound; second compound 0.000949 µM
MEASUREMENT NAME: IC50 (nM)
# number only, unit nM dropped from output

Identify measured IC50 obtained with 898857-211-R-J1-PDC complex spheroids, growth % test/control for Nc1ccn(C2OC(CO)C(O)C2(F)F)c(=O)n1 (configuration not stated) + CCn1c(-c2cc(N3CCN(C)CC3)cnc2C(C)OC)c2c3cc(ccc31)-c1csc(n1)CC(NC(=O)C1CC1C)C(=O)N1CCCC(N1)C(=O)OCC(C)(C)C2 .
5.06

* * *

Assign viability, T/C to each entry below.
Test system: 898857-211-R-J1-PDC complex spheroids, growth % test/control
EXPERIMENT: Anticancer human tumor 898857-211-R-J1-PDC cell line growth inhibition [RAS];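 note: spheroids exposed to compound for seven days before readout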;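 for viability, T/C: 100% = DMSO vehicle control wells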
RECORDED CONDITIONS: second compound 0.000949 µM; first compound 1 µM; stronger effect = lower value
The answer is to be given in %; state only the numeric part.

Input CC(Nc1ccc2c(c1)OCCn1cc(N3C(=O)OCC3C(F)F)nc1-2)C(N)=O (stereo not drawn) + CCn1c(-c2cccnc2C(C)OC)c2c3cc(ccc31)N1CCOC(CC(NC(=O)C(C(C)C)N(C)C(=O)C3(F)CCN(C(=O)C#CC(C)(C)N(C)C)CC3)C(=O)N3CCCC(N3)C(=O)OCC(C)(C)C2)C1 , output reported viability, T/C.
92.7

Please look at this compound and report its viability, T/C: Cc1nc(N2CCC3(CC2)COC(C)C3N)c(CO)nc1Sc1ccnc(N)c1Cl (stereo not drawn) + CCn1c(-c2cc(N3CCN(C)CC3)cnc2C(C)OC)c2c3cc(ccc31)-c1csc(n1)CC(NC(=O)C1CC1C)C(=O)N1CCCC(N1)C(=O)OCC(C)(C)C2
94.2

Please give measured viability, T/C of the following entry: CCN1CCN(Cc2ccc(Nc3ncc(F)c(-c4cc(F)c5nc(C)n(C(C)C)c5c4)n3)nc2)CC1 + CCn1c(-c2cc(N3CCN(C)CC3)cnc2C(C)OC)c2c3cc(ccc31)-c1csc(n1)CC(NC(=O)C1CC1C)C(=O)N1CCCC(N1)C(=O)OCC(C)(C)C2
36.9

Item C=CC(=O)Nc1cc(Nc2nccc(-c3cn(C)c4ccccc34)n2)c(OC)cc1N(C)CCN(C)C + CCn1c(-c2cc(N3CCN(C)CC3)cnc2C(C)OC)c2c3cc(ccc31)-c1csc(n1)CC(NC(=O)C1CC1C)C(=O)N1CCCC(N1)C(=O)OCC(C)(C)C2 : provide viability, T/C
45.5

Note down viability, T/C recorded for C=CC(=O)Nc1cc(Nc2nccc(-c3cn(C)c4ccccc34)n2)c(OC)cc1N(C)CCN(C)C + CCn1c(-c2cccnc2C(C)OC)c2c3cc(ccc31)N1CCOC(CC(NC(=O)C(C(C)C)N(C)C(=O)C3(F)CCN(C(=O)C#CC(C)(C)N(C)C)CC3)C(=O)N3CCCC(N3)C(=O)OCC(C)(C)C2)C1
56.3

Specify measured viability, T/C for O=C(c1ccc(F)c(F)c1Nc1ccc(I)cc1F)N1CC(O)([C@@H]2CCCCN2)C1 + CCn1c(-c2cc(N3CCN(C)CC3)cnc2C(C)OC)c2c3cc(ccc31)-c1csc(n1)CC(NC(=O)C1CC1C)C(=O)N1CCCC(N1)C(=O)OCC(C)(C)C2 .
9.63

Give recorded viability, T/C. CC(C)NCC(C(=O)N1CCN(c2ncnc3c2C(C)CC3O)CC1)c1ccc(Cl)cc1 (stereo not drawn) + CCn1c(-c2cc(N3CCN(C)CC3)cnc2C(C)OC)c2c3cc(ccc31)-c1csc(n1)CC(NC(=O)C1CC1C)C(=O)N1CCCC(N1)C(=O)OCC(C)(C)C2
76.7

Indicate its recorded viability, T/C; the compound in question is NC1c2ccccc2OC12CCN(c1cnc3c(N4CCCc5ncccc54)n[nH]c3n1)CC2 (stereo not drawn) + CCn1c(-c2cc(N3CCN(C)CC3)cnc2C(C)OC)c2c3cc(ccc31)-c1csc(n1)CC(NC(=O)C1CC1C)C(=O)N1CCCC(N1)C(=O)OCC(C)(C)C2
81.9
